Every entry's value here was drawn from paper PMC7262662.

- METHOD DESCRIPTION: Pharmacokinetics study in healthy cats (plasma curcumin by HPLC)
- Assay type: in vivo
- TEST CONTEXT: plasma, po, 250 mg/kg, oral 250 mg/kg, single dosing (s.i.d.), read-out: AUC0-12
MEASUREMENT TYPE: AUC(0-t) (µg·h/mL)
Write the answer as a number in µg·h/mL, unit excluded.

Query: Item under review: COc1cc(/C=C/C(=O)CC(=O)/C=C/c2ccc(O)c(OC)c2)ccc1O [Curcumin] . Reported AUC(0-t)?
Reply: 1.14

----------
- METHOD DESCRIPTION: Pharmacokinetics study in healthy cats (plasma curcumin by HPLC)
- Format: in vivo
- TEST CONTEXT: plasma, po, 250 mg/kg, oral 250 mg/kg, two dosing (b.i.d.), read-out: AUC0-12
MEASUREMENT TYPE: AUC(0-t) (ng·h/mL)
Write the answer as a number in ng·h/mL, unit excluded.

Query: Item under review: COc1cc(/C=C/C(=O)CC(=O)/C=C/c2ccc(O)c(OC)c2)ccc1O [Curcumin] . Reported AUC(0-t)?
Reply: 1510

----------
- METHOD DESCRIPTION: Pharmacokinetics study in healthy cats (plasma curcumin by HPLC)
- Type: in vivo
- TEST CONTEXT: cat, plasma, po, 250 mg/kg, oral 250 mg/kg, b.i.d. study, as stated in the text (similar to s.i.d. profile)
MEASUREMENT TYPE: Tmax

Query: Item under review: COc1cc(/C=C/C(=O)CC(=O)/C=C/c2ccc(O)c(OC)c2)ccc1O . Reported Tmax?
Reply: 2 to 4 h

----------
- METHOD DESCRIPTION: Pharmacokinetics study in healthy cats (plasma curcumin by HPLC)
- Format: in vivo
- TEST CONTEXT: plasma, oral 250 mg/kg, single dosing (s.i.d.)
MEASUREMENT TYPE: AUC(0-inf) (ng·h/mL)
Write the answer as a number in ng·h/mL, unit excluded.

Query: Item under review: COc1cc(/C=C/C(=O)CC(=O)/C=C/c2ccc(O)c(OC)c2)ccc1O . Reported AUC(0-inf)?
Reply: 1370

----------
- METHOD DESCRIPTION: Pharmacokinetics study in healthy cats (plasma curcumin by HPLC)
- Assay type: in vivo
- TEST CONTEXT: plasma, po, 250 mg/kg, oral 250 mg/kg, two dosing (b.i.d.), read-out: AUC0-24
MEASUREMENT TYPE: AUC(0-t) (ng·h/mL)
Write the answer as a number in ng·h/mL, unit excluded.

Query: Item under review: COc1cc(/C=C/C(=O)CC(=O)/C=C/c2ccc(O)c(OC)c2)ccc1O . Reported AUC(0-t)?
Reply: 3100

----------
- Test system: FIPV strain WSU 79-1146
- METHOD DESCRIPTION: Cytopathic effect inhibition assay (time of addition, MTT)
- Type: cell-based, feline infectious peritonitis virus
- TEST CONTEXT: Alphacoronavirus 1; 48 h; 50% protection against virus-induced CPE; 100 TCID50 FIPV in CrFK cells
MEASUREMENT TYPE: pEC50
Please treat pEC50 as minus the base-10 logarithm of the molar concentration.

Query: Item under review: COc1cc(/C=C/C(=O)CC(=O)/C=C/c2ccc(O)c(OC)c2)ccc1O . Reported pEC50?
Reply: 4.80
